- Test system: Recombinant human CSF1R kinase (Homo sapiens (Human), UniProt P07333)
- Particulars: Z-LYTE Tyr 1 peptide substrate
Assay endpoint: log10 IC50 (log10 of the value in nM)
Log scale reminder: IC50 in nM, then log10 taken.

# input Please report the recorded log10 IC50 for Cc1ncc(C(=O)Nc2ccc(Oc3ccnc(-c4cnn(CCN)c4)c3)cn2)c(=O)n1C [Compound 109] .
# output 2.25

# input Same thing, different molecule: CC(C)n1nccc(C(=O)Nc2ccc(Oc3ccnc(-c4ccn(C)c4)c3)cn2)c1=O [Compound 126]
# output 1.40

----------
- Test system: CSF1R phosphorylation in THP-1 cells (Homo sapiens (Human), UniProt P07333)
- Sequence (P07333 20-972): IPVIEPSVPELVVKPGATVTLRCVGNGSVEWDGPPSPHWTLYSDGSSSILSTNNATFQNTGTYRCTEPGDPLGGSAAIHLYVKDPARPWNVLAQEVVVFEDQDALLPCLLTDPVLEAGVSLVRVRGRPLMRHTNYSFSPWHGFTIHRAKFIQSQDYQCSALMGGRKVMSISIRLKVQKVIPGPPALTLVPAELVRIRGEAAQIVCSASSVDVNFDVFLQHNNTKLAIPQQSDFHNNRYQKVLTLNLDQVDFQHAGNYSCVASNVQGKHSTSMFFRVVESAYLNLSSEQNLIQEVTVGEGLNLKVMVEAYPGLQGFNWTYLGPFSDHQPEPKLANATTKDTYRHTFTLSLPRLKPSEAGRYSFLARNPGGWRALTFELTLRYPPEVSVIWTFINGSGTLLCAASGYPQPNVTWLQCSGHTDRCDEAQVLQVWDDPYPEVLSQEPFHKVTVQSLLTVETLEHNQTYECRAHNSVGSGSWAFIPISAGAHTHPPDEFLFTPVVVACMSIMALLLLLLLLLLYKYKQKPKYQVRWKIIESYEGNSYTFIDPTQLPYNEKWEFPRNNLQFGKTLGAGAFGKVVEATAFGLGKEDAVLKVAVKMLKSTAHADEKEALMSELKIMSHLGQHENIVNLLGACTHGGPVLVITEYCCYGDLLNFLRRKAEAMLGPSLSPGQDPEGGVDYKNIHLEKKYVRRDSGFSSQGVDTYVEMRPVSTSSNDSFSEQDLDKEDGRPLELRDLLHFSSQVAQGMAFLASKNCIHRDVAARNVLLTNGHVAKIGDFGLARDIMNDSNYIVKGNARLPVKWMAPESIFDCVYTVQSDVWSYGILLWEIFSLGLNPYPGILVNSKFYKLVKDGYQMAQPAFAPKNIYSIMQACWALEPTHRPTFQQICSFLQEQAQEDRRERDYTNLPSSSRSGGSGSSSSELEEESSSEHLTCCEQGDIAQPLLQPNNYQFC
- Test details: Detection of CSF1R phosphorylation activity at cell level (THP-1, M-CSF stimulated, ELISA)
- Particulars: p-CSF1R ELISA, compound 60 min, 300 ng/mL M-CSF 1 min
Assay endpoint: pIC50
Interpret pIC50 as the negative base-10 log of the concentration measured in mol/L.

Some solved cases for reference:
[[record]]
chemical_smiles = "Cc1ncc(C(=O)Nc2ccc(Oc3ccnc(-c4ccn5ccnc5c4)c3)cn2)c(=O)n1C"
test_system = "CSF1R phosphorylation in THP-1 cells (Homo sapiens (Human), UniProt P07333)"
result = 7.64

[[record]]
chemical_smiles = "Cc1ncc(C(=O)Nc2ccc(Oc3ccnc(Nc4cnn(C)c4)c3)cn2)c(=O)n1C"
test_system = "CSF1R phosphorylation in THP-1 cells (Homo sapiens (Human), UniProt P07333)"
result = 8.30

[[record]]
chemical_smiles = "Cn1cc(-c2cc(Oc3ccc(NC(=O)c4ccc[nH]c4=O)nc3)ccn2)cn1"
test_system = "CSF1R phosphorylation in THP-1 cells (Homo sapiens (Human), UniProt P07333)"
result = 6.98


# input Please report the recorded pIC50 for CC(C)n1cccc(C(=O)Nc2ccc(Oc3ccnc(-c4cnn(C)c4)n3)cn2)c1=O .
# output 7.68

# input Same thing, different compound: Cc1cn(-c2cc(Oc3ccc(NC(=O)c4cnc(C)n(C)c4=O)nc3)ccn2)cn1
# output 7.82

# input Same thing, different compound: CC(C)n1cccc(C(=O)Nc2ccc(Oc3ccnc(-c4cn(C)cn4)c3)cn2)c1=O
# output 7.82

# input Same thing, different compound: CN(C)CCn1cccc(C(=O)Nc2ccc(Oc3ccnc(-c4cnn(C)c4)c3)cn2)c1=O
# output 6.84

# input Same thing, different compound: Cn1cc(-c2cc(Oc3ccc(NC(=O)c4cccn(C5COC5)c4=O)nc3)ccn2)cn1
# output 7.89

# input Same thing, different compound: Cc1ncc(C(=O)Nc2ccc(Oc3ccnc(-c4cnn(C)c4)c3)cn2)c(=O)[nH]1
# output 7.25

# input Same thing, different compound: CC(C)n1cncc(C(=O)Nc2ccc(Oc3ccnc(-c4cnn(C)c4)c3)cn2)c1=O
# output 7.68

# input Same thing, different compound: Cn1cc(-c2cc(Oc3ccc(NC(=O)c4cccn(CCO)c4=O)nc3)ccn2)cn1
# output 8.00

# input Same thing, different compound: CC(C)n1cccc(C(=O)Nc2ccc(Oc3ccnc(Nc4cnn(C)c4)c3)cn2)c1=O
# output 8.10

# input Same thing, different compound: Cc1c(F)cc(C(=O)Nc2ccc(Oc3ccnc(Nc4ccnn4C)c3)cn2)c(=O)n1C
# output 7.74

# input Same thing, different compound: CC(C)n1cccc(C(=O)Nc2ccc(Oc3ccnc(-c4cnn(CCO)c4)c3)cn2)c1=O
# output 7.80

# input Same thing, different compound: Cc1c(F)cc(C(=O)Nc2ccc(Oc3ccnc(-c4cnn(C)c4)c3)cn2)c(=O)n1C
# output 6.84

# input Same thing, different compound: Cn1nccc1Nc1cc(Oc2ccc(NC(=O)c3cc(F)cn(C)c3=O)nc2)ccn1
# output 8.00

----------
- Test system: Recombinant human CSF1R kinase (Homo sapiens (Human), UniProt P07333)
- Particulars: Z-LYTE Tyr 1 peptide substrate
Reported IC50 values follow for various compounds

Some solved cases for reference:
[[record]]
chemical_smiles = "O=C(Nc1ccc(Oc2ccnc(Nc3ccn(C(F)F)n3)c2)cn1)c1cnc2n(c1=O)CCC2"
test_system = "Recombinant human CSF1R kinase (Homo sapiens (Human), UniProt P07333)"
assay_endpoint = "IC50"
result = "3 nM"

[[record]]
chemical_smiles = "CCn1cccc(C(=O)Nc2ccc(Oc3ccnc(-c4cnn(C)c4)c3)cn2)c1=O"
test_system = "Recombinant human CSF1R kinase (Homo sapiens (Human), UniProt P07333)"
assay_endpoint = "IC50"
result = "3 nM"

[[record]]
chemical_smiles = "Cc1ncc(C(=O)Nc2ccc(Oc3ccnc(-c4ccc5nccn5c4)c3)cn2)c(=O)n1C"
test_system = "Recombinant human CSF1R kinase (Homo sapiens (Human), UniProt P07333)"
assay_endpoint = "IC50"
result = "16 nM"

[[record]]
chemical_smiles = "COc1cc(Oc2ccnc(-c3cnn(C)c3)c2)ccc1NC(=O)c1cnc(C)n(C)c1=O"
test_system = "Recombinant human CSF1R kinase (Homo sapiens (Human), UniProt P07333)"
assay_endpoint = "IC50"
result = "135 nM"

[[record]]
chemical_smiles = "Cn1cc(-c2cc(Oc3ccc(NC(=O)c4cc(F)cn(C)c4=O)nc3)ccn2)cn1"
test_system = "Recombinant human CSF1R kinase (Homo sapiens (Human), UniProt P07333)"
assay_endpoint = "IC50"
result = "4 nM"

[[record]]
chemical_smiles = "C=CCn1cccc(C(=O)Nc2ccc(Oc3ccnc(-c4cnn(C)c4)c3)cn2)c1=O"
test_system = "Recombinant human CSF1R kinase (Homo sapiens (Human), UniProt P07333)"
assay_endpoint = "IC50"
result = "3 nM"

[[record]]
chemical_smiles = "Cc1ncn(C)c(=O)c1C(=O)Nc1ccc(Oc2ccnc(-c3cnn(C)c3)c2)cn1"
test_system = "Recombinant human CSF1R kinase (Homo sapiens (Human), UniProt P07333)"
assay_endpoint = "IC50"
result = "91 nM"


# input Please report the recorded IC50 for Cn1nccc1Nc1cc(Oc2ccc(NC(=O)c3cnc4n(c3=O)CCC4)nc2)ccn1 .
# output 5 nM

----------
- Test system: Recombinant human CSF1R kinase (Homo sapiens (Human), UniProt P07333)
- Particulars: Z-LYTE Tyr 1 peptide substrate
Assay endpoint: log10 of IC50 (log10 of the value in nM)
Log scale reminder: IC50 in nM, then log10 taken.

[[record]]
compound = "Cc1cc(Nc2cc(Oc3ccc(NC(=O)c4cnc(C)n(C)c4=O)nc3)ccn2)ccn1 [Compound 35]"
result = 2.05

[[record]]
compound = "Cc1ncc(C(=O)Nc2ccc(Oc3ccnc(-c4cnn(C)c4)c3)cn2)c(=O)n1C [Compound 8]"
result = 0.60


# input Please tell me: log10 of IC50 of CC(C)n1cccc(C(=O)Nc2ccc(Oc3ccnc(-c4cnn(CCO)c4)c3)cn2)c1=O [Compound 95] , system Recombinant human CSF1R kinase (Homo sapiens (Human), UniProt P07333)?
# output 0.90

# input Same thing, different compound: Cn1cc(-c2cc(Oc3ccc(NC(=O)c4ccc(C(F)(F)F)n(C)c4=O)nc3)ccn2)cn1 [Compound 90]
# output 0.78

# input Same thing, different compound: Cc1ncc(C(=O)Nc2ccc(Oc3ccnc(-c4ccccn4)c3)cn2)c(=O)n1C [Compound 34]
# output 1.90

----------
- Test system: CSF1R phosphorylation in THP-1 cells (Homo sapiens (Human), UniProt P07333)
- Test details: Detection of CSF1R phosphorylation activity at cell level (THP-1, M-CSF stimulated, ELISA)
- Particulars: p-CSF1R ELISA, compound 60 min, 300 ng/mL M-CSF 1 min
Assay endpoint: log10 of IC50 (log10 of the value in µM)
Log scale reminder: IC50 in µM, then log10 taken.

Some solved cases for reference:
[[record]]
compound = "Cn1cc(-c2cc(Oc3ccc(NC(=O)c4cc(F)cn(C)c4=O)nc3)ccn2)cn1 [Compound 80]"
test_system = "CSF1R phosphorylation in THP-1 cells (Homo sapiens (Human), UniProt P07333)"
assay_endpoint = "log10 of IC50"
result = -2.52

[[record]]
compound = "Cn1cc(-c2cc(Oc3ccc(NC(=O)c4cncn(C)c4=O)nc3)ccn2)cn1 [Compound 10]"
test_system = "CSF1R phosphorylation in THP-1 cells (Homo sapiens (Human), UniProt P07333)"
assay_endpoint = "log10 of IC50"
result = -1.21

[[record]]
compound = "CC(C)n1nccc(C(=O)Nc2ccc(Oc3ccnc(-c4cnn(C)c4)c3)cn2)c1=O [Compound 60]"
test_system = "CSF1R phosphorylation in THP-1 cells (Homo sapiens (Human), UniProt P07333)"
assay_endpoint = "log10 of IC50"
result = -1.85

[[record]]
compound = "Cc1ncc(C(=O)Nc2ccc(Oc3ccnc(-c4cccnc4)c3)cn2)c(=O)n1C [Compound 33]"
test_system = "CSF1R phosphorylation in THP-1 cells (Homo sapiens (Human), UniProt P07333)"
assay_endpoint = "log10 of IC50"
result = -1.82

[[record]]
compound = "Cc1cc(Nc2cc(Oc3ccc(NC(=O)c4cccn(C)c4=O)nc3)ccn2)n[nH]1 [Compound 112]"
test_system = "CSF1R phosphorylation in THP-1 cells (Homo sapiens (Human), UniProt P07333)"
assay_endpoint = "log10 of IC50"
result = -2.00

[[record]]
compound = "Cn1cc(-c2cc(Oc3cnc(NC(=O)c4cccn(C)c4=O)c(F)c3)ccn2)cn1 [Compound 22]"
test_system = "CSF1R phosphorylation in THP-1 cells (Homo sapiens (Human), UniProt P07333)"
assay_endpoint = "log10 of IC50"
result = -2.00

[[record]]
compound = "Cn1nccc1Nc1cc(Oc2ccc(NC(=O)c3cccn(C)c3=O)nc2)ccn1 [Compound 48]"
test_system = "CSF1R phosphorylation in THP-1 cells (Homo sapiens (Human), UniProt P07333)"
assay_endpoint = "log10 of IC50"
result = -2.30

[[record]]
compound = "Cc1nc(NC(=O)c2cccn(C(C)C)c2=O)ccc1Oc1ccnc(-c2cnn(C)c2)c1 [Compound 93]"
test_system = "CSF1R phosphorylation in THP-1 cells (Homo sapiens (Human), UniProt P07333)"
assay_endpoint = "log10 of IC50"
result = -1.21


# input Please report the recorded log10 of IC50 for Cc1cccc(Nc2cc(Oc3ccc(NC(=O)c4cnc(C)n(C)c4=O)nc3)ccn2)n1 [Compound 36] .
# output -2.10

# input Same thing, different compound: COCCn1cccc(C(=O)Nc2ccc(Oc3ccnc(-c4cnn(C)c4)c3)cn2)c1=O [Compound 82]
# output -1.96

# input Same thing, different compound: C=CCn1cccc(C(=O)Nc2ccc(Oc3ccnc(-c4cnn(C)c4)c3)cn2)c1=O [Compound 88]
# output -2.00
